assay.target: T1, corticotropin releasing factor 2 receptor
T1 sequence (Q13324 whole entry, species assumed, looked up): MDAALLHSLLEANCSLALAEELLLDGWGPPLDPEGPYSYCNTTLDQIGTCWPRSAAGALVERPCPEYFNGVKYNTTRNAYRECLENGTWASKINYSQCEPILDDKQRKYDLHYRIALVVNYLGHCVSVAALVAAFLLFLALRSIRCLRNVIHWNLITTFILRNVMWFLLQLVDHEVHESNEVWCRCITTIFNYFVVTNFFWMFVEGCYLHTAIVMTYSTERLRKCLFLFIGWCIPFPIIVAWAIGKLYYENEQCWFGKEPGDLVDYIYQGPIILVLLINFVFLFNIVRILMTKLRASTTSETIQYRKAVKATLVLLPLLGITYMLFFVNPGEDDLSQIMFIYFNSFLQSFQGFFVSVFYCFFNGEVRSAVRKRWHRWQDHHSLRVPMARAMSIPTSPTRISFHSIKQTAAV
assay.comment: cell-based or functional assay
Ends that are not written are not given here.

binder	CRF2R Emax %
DNPSLSIDLPLFLLRTLLELEKTQSQRERAEQNAIIFASV-NH2 [SEQ ID NO 343]	96.5%
ZGPPISIDLPFHLLRKMIEIEKQEKEKQQAANNALLLDTI (C-terminal amide) [SEQ ID NO 228]	100%
ZGPPISIDLPFFLLRKMIEIEKQEKEKQQAANNRLLLDTI (C-terminal amide) [SEQ ID NO 223]	92%
ZGPPISIDLPFQLLRKVIEIEKQEKEKQQAANNALLLDTI (C-terminal amide) [SEQ ID NO 350]	98.1%
ZGPPISIDLPQFLLRKMIEIEKQEKEKQQAANNRLLLDTI (C-terminal amide) [SEQ ID NO 221]	100%
ZGPPISIDLPYWLLRKMIEIEKQEKEKQQAANNALLLDTI (C-terminal amide) [SEQ ID NO 310]	87.5%

Data origin, for the record: patent US20030148956A1
